These data points were gathered from patent US20180057596A1.

- MEASUREMENT_TARGET: T1, cynomolgus IL4Rα/Fc HIS6 (HEK expressed) (cynomolgus monkey)
- T1 construct: also called Cyno IL4R; cynomolgus IL-4Rα HIS Fc (in house HEK-EBNA derived); not shown: HIS6 tag
- T1 sequence (chain, as listed by the source): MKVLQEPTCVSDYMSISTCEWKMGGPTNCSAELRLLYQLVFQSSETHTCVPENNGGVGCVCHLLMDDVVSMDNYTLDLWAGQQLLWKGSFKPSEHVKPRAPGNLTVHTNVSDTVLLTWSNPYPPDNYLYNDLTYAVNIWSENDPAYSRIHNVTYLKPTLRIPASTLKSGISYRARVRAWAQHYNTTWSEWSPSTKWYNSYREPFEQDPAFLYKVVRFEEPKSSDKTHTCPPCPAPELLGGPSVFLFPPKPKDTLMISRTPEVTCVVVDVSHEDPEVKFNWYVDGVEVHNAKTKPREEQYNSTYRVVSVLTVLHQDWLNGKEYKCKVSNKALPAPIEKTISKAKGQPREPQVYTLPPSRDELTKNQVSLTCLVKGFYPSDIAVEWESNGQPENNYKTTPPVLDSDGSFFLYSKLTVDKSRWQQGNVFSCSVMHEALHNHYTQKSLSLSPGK
- PROTOCOL_DESCRIPTION: HTRF receptor-ligand assay, purified scFv against biotinylated cynomolgus IL4
Quick reference: pKi of the listed items.
Hey, just a heads up that pKi is the negative log base 10 of the concentration in molar.

Consider the following illustrative entries.
Antibody 41 scFv (scFv, V domains shown, tested as purified scFv) VH: QVQLVQSGAEVRKPGASVKVSCKASGYAFTSYYMHWARQAPGQGLEWMGIINPSGGSTSYAQKFQGRVTMTRDTSTSTVYMELSSLRPEDTAVYYCARGKYWMYDWGKGTLVTVSG VL: QSVLTQPPSVSAAPGQKVTISCSGGSTNIGNSYVSWYQRLPGTAPKLLIYDNNKRPPGIPDRFSGSKSGTSATLAITGLQTGDEADYYCGTWDTSTVWEWPFGTGTKLTVL
8.57
Antibody 20 scFv (scFv, V domains shown, tested as purified scFv) VH: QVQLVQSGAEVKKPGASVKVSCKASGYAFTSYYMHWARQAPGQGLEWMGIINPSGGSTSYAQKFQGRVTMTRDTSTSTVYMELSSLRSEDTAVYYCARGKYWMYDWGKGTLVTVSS VL: QSVLTQPPSVSAAPGQKVTISCSGGSSNIGNSYVSWYQQLPGTAPKLLIYDNNKRPSGIPDRFSGSKSGTSATLAITGLQTGDEADYYCGTWDTSTVWEWPFGTGTKLTVL
8.38

Switching to the query record.
What measured pKi goes with Antibody 13 scFv (scFv, V domains shown, tested as purified scFv) VH: QVQLVQSGAEVKKPGASVKVSCKASGYAFTSYYMHWARQAPGQGLEWMGIINPSGGSTSYAQKFQGRVTMTRDTSTSTVYMELSSLRSEDTAVYYCARGKWWLYDWGKGTLVTVSS VL: QSVLTQPPSVSAAPGQKVTISCSGGSSNIGNSYVSWYQQLPGTAPKLLIYDNNKRPSGIPDRFSGSKSGTSATLAITGLQTGDEADYYCGTWDTSTTLQPLFGTGTKLTVL ?
7.65
